Cited source for all entries: patent US20220332795A1

target: T1, recombinant biotinylated CD71 extracellular domain (Sino Biologics) with an N-terminal 6His tag (human, UniProt P02786 89-760, biotinylated (site not stated)); experiment: primary solution ELISA screen
T1 construct: extracellular domain; also called hCD71; huCD71 ECD
T1 sequence (P02786 other isoform, or with tags, fused parts or gaps): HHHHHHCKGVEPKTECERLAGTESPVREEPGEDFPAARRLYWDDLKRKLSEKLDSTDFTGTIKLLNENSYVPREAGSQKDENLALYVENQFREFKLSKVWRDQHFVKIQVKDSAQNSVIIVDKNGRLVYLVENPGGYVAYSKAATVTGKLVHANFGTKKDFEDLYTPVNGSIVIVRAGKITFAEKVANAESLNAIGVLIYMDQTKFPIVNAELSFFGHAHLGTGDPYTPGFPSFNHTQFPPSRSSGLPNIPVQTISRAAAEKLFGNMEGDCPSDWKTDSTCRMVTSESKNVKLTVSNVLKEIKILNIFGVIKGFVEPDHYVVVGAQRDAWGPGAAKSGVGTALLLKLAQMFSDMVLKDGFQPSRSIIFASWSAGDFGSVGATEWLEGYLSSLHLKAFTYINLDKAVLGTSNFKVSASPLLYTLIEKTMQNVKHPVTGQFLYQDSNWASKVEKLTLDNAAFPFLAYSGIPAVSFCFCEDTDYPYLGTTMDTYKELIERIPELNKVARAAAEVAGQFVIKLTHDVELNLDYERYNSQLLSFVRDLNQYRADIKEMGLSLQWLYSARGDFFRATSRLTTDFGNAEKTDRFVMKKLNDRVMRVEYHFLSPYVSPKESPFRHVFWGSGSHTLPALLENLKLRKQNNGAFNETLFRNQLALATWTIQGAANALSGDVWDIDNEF
MEASURED ATTRIBUTE: RLU (RLU)
Report the value in RLU with no unit label.

BINDER: SEQ ID NO 70 (designed binder, not shown: small tags and cut ends, FN3 domain, hit of the apical domain panning) MLPAPKNLVVSRVTEDSARLSWQGVARAFDSFLITYREQIFAGEVIVLTVPGSERSYDLTGLKPGTEYPVWIQGVKGGDLSNPLSAIFTT
RLU / RLU: 991000

Can you share its RLU? I mean this binder: SEQ ID NO 74 (designed binder, not shown: small tags and cut ends, FN3 domain, hit of the apical domain panning) MLPAPKNLVVSRVTEDSARLSWTAPDAAFDSFSITYLEWWNLGEAIVLTVPGSERSYDLTGLKPGTEYMVTIPGVKGGMSSYPLSAIFTT
824000

Can you share its RLU? I mean this binder: SEQ ID NO 64 (designed binder, not shown: small tags and cut ends, FN3 domain, hit of the apical domain panning) MLPAPKNLVVSRVTEDSARLSWTAPDAAFDSFYIVYAEPIPNGEAIVLTVPGSERSYDLTGLKPGTEYSVLIHGVKGGRNSDPLSAIFTT
1.31e+06

Can you share its RLU? I mean this binder: SEQ ID NO 93 (designed binder, not shown: small tags and cut ends, FN3 domain, hit of the apical domain panning) MLPAPKNLVVSRVTEDSARLSWTAPDAAFDSFAIEYYEPVPAGEAIYLDVPGSERSYDLTGLKPGTEYDVTIYGVKGGYYSHPLFASFTT
430000

Can you share its RLU? I mean this binder: SEQ ID NO 58 (designed binder, not shown: small tags and cut ends, FN3 domain, hit of the apical domain panning) MLPAPKNLVVSRVTEDSARLSWTAPDAAFDSFHIEYLELSRHGEAIVLTVPGSERSYDLTGLKPGTEYWVMIFGVKGGGPSKPLSAIFTT
1.04e+06

Can you share its RLU? I mean this binder: SEQ ID NO 37 (designed binder, not shown: small tags and cut ends, FN3 domain, hit of the apical domain panning) MLPAPKNLVVSRVTEDSARLSWTTPDAAFDSFPIYYWEVTITGEAIYLSVPGSERSYDLTGLKPGTEYPVDIPGVKGGAASPPLSAIFTT
2.95e+06

Can you share its RLU? I mean this binder: SEQ ID NO 76 (designed binder, not shown: small tags and cut ends, FN3 domain, hit of the apical domain panning) MLPAPKNLVVSRVTEDSARLSWTAPDAAFDSFTIEYYENIGIGEAIVLTVPGSERSYDLTGLKPGTEYSVPIVGVKGGPYSHPLSAIFTT
674000

Can you share its RLU? I mean this binder: SEQ ID NO 59 (designed binder, not shown: small tags and cut ends, FN3 domain, hit of the apical domain panning) MLPAPKNLVVSRVTEDSARLSWTAPDAAFDSFVYNEVHWIGEAIVLTVPGSERSYDLTGLKPGTEYFVGIYGVKGGHWSKPLSAIFTT
1.11e+06

Can you share its RLU? I mean this binder: SEQ ID NO 30 (designed binder, not shown: small tags and cut ends, FN3 domain, hit of the apical domain panning) MLPAPKNLVVSRVTEDSARLSWTAPDAAFDSFIIHYVEQQLIGEAIVLTVPGSERSYDLTGLKPGTEYPVPITGVKGGACSWPLSAIFTT
205000

Can you share its RLU? I mean this binder: SEQ ID NO 69 (designed binder, not shown: small tags and cut ends, FN3 domain, hit of the apical domain panning) MLPAPKNLVVSRVTEDSARLSWTAPDAAFDSFHIAYEETATSGEAIYLRVPGSERSYDLTGLKPGTEYGVEIEGVKGGARSRPLYADFTT
3.17e+06

Can you share its RLU? I mean this binder: SEQ ID NO 17 (designed binder, not shown: small tags and cut ends, FN3 domain, hit of the apical domain panning) MLPAPKNLVVSRVTEDSARLSWTAPDAAFDSFPILYTECVYRGEAIVLTVPGSERSYDLTGLKPGTEYHVPITGVKGGGGSWPLSAIFTT
221000

Can you share its RLU? I mean this binder: SEQ ID NO 19 (designed binder, not shown: small tags and cut ends, FN3 domain, hit of the apical domain panning) MLPAPKNLVVSRVTEDSARLSWTAPDAAFDSFAITYTEAALCGEAIVLTVPGSERSYDLTGLKPGTEYPVPINGVKGGGTSGPLSAIFTT
956000

Can you share its RLU? I mean this binder: SEQ ID NO 77 (designed binder, not shown: small tags and cut ends, FN3 domain, hit of the apical domain panning) MLPAPKNLVVSRVTEDSARLSWTAPDAAFDSFPIAYAEPRPDGEAIVLTVPGSERSYDLTGLKPGTEYSVLIHGVKGGLLSSPLSAIFTT
739000
